Listing of entries alongside the reported solubility (g/100 g solution).
- Measurement description: xn = mol fraction of the nth substance listed, in the solute-free solvent
- Measurement conditions: 303.15 K; x2 = 0.8
Output: the number by itself.

Observe how each entry below is paired with its result.
>  <Molecule>
CCOC(=O)OC1=C(c2cc(C)ccc2C)C(=O)NC12CCC(OC)CC2 (centres undefined) + CCO + O

>  <Measurement>
9.63

$$$$
>  <Molecule>
Cc1ncc(CO)c(CO)c1O.Cl + O + CCCO

>  <Measurement>
15.4

$$$$
>  <Molecule>
CCOc1ccccc1C(N)=O + CC#N + CC(C)O

>  <Measurement>
7.3

$$$$

Turning now to a further molecule:
Q: Which solubility (g/100 g solution) is reported for this molecule? Cl.NC(Cc1ccccc1)C(=O)OCc1ccccc1 (centres undefined) + CO + CC(C)=O
A: 13.6

====

- Measurement description: xn = mol fraction of the nth substance listed, in the solute-free solvent
- Measurement conditions: 323.15 K; x2 = 0.7
Some compounds, each annotated with its measured solubility (g/100 g solution).

>  <Compound>
Cc1c(Br)c(=O)n(C2CCCC2)c2nc(Cl)ncc12 + C1CCOC1 + CCO

>  <Measurement>
11.7

$$$$
>  <Compound>
Cc1c(Br)c(=O)n(C2CCCC2)c2nc(Cl)ncc12 + CC1=CC(=O)CC(C)(C)C1 + CC(C)O

>  <Measurement>
5.14

$$$$
>  <Compound>
O=C(NC(C(=O)O)c1ccccc1)OCc1ccccc1 (centres undefined) + CCO + O

>  <Measurement>
49.1

$$$$

Q: solubility (g/100 g solution) for CCOc1ccccc1C(N)=O + CC#N + CC(C)O ?
A: 19.6

====

- Measurement description: xn = mol fraction of the nth substance listed, in the solute-free solvent
- Measurement conditions: 323.15 K; x2 = 0.6
Listed compounds paired with reported solubility (g/100 g solution)

Record excerpt, results attached:
>  <Compound>
Cc1c(Br)c(=O)n(C2CCCC2)c2nc(Cl)ncc12 + C1CCOC1 + CCO

>  <solubility (g/100 g solution)>
10.5

$$$$
>  <Compound>
CCOc1ccccc1C(N)=O + CC#N + CCO

>  <solubility (g/100 g solution)>
23.3

$$$$
>  <Compound>
CCOc1ccccc1C(N)=O + CC#N + CC(C)O

>  <solubility (g/100 g solution)>
20.3

$$$$

Q: Please report the recorded solubility (g/100 g solution) for O=C(NC(C(=O)O)c1ccccc1)OCc1ccccc1 (centres undefined) + CCO + O .
A: 45.5

====

Form field: solubility (g/100 g solution) (one value per entry).
- Measurement description: xn = mol fraction of the nth substance listed, in the solute-free solvent
- Measurement conditions: 293.15 K; x2 = 0.6
Keep the answer to the number alone.

As a guide, the following entries are already answered.
>  <Molecule>
COC(=O)C(N)CS.Cl (stereo not given) + CCO + ClCCl

>  <Measurement>
5.88

$$$$
>  <Molecule>
N#CCNC(=O)c1cnccc1C(F)(F)F + CCOC(C)=O + CCO

>  <Measurement>
7.24

$$$$
>  <Molecule>
Cc1ncc(CO)c(CO)c1O.Cl + O + CC#N

>  <Measurement>
8.31

$$$$
>  <Molecule>
Cc1c(Br)c(=O)n(C2CCCC2)c2nc(Cl)ncc12 + CCOC(C)=O + CCO

>  <Measurement>
0.701

$$$$

Here's the next entry for you.
Q: Please give the measured solubility (g/100 g solution) for this molecule: CCOc1ccccc1C(N)=O + CCO + CC#N
A: 6.6

====

- Measurement description: xn = mol fraction of the nth substance listed, in the solute-free solvent
- Measurement conditions: 313.15 K; x2 = 0.9
Measured endpoint: solubility (g/100 g solution)
Reply with the value as a number alone.

Examples from the recorded data:
>  <Molecule>
CCOc1ccccc1C(N)=O + CO + CC#N

>  <solubility (g/100 g solution)>
18.5

$$$$
>  <Molecule>
Cc1c(Br)c(=O)n(C2CCCC2)c2nc(Cl)ncc12 + CCOC(C)=O + CCO

>  <solubility (g/100 g solution)>
1.5

$$$$
>  <Molecule>
CCOc1ccccc1C(N)=O + CCO + CC#N

>  <solubility (g/100 g solution)>
11.8

$$$$
>  <Molecule>
Cl.NC(Cc1ccccc1)C(=O)OCc1ccccc1 (centres undefined) + CO + CC(C)=O

>  <solubility (g/100 g solution)>
18.4

$$$$
>  <Molecule>
Cc1ncc(CO)c(CO)c1O.Cl + O + CC#N

>  <solubility (g/100 g solution)>
26.3

$$$$

Consider now this further molecule.
Q: What measured solubility (g/100 g solution) goes with CCOc1ccccc1C(N)=O + CC#N + CC(C)O ?
A: 9.97

====

- Measurement description: xn = mol fraction of the nth substance listed, in the solute-free solvent
- Measurement conditions: 308.15 K; x2 = 0.9
Measured endpoint: solubility (g/100 g solution)

Check out these entries, answers already filled in.
>  <Compound>
Cc1ncc(CO)c(CO)c1O.Cl + O + CC(C)O

>  <solubility (g/100 g solution)>
19.7

$$$$
>  <Compound>
Cc1ncc(CO)c(CO)c1O.Cl + O + CCCO

>  <solubility (g/100 g solution)>
21.1

$$$$
>  <Compound>
Cc1c(Br)c(=O)n(C2CCCC2)c2nc(Cl)ncc12 + CC1=CC(=O)CC(C)(C)C1 + CC(C)O

>  <solubility (g/100 g solution)>
2.7

$$$$

For the next question, use this compound.
Q: For the compound Cc1c(Br)c(=O)n(C2CCCC2)c2nc(Cl)ncc12 + CCOC(C)=O + CCO , what solubility (g/100 g solution) is on record?
A: 1.32

====

- Measurement description: xn = mol fraction of the nth substance listed, in the solute-free solvent
- Measurement conditions: 293.15 K; x2 = 0.5
Measured endpoint: solubility (g/100 g solution)
Quick one: just the number, no unit, thanks!

>  <Compound>
Cc1c(Br)c(=O)n(C2CCCC2)c2nc(Cl)ncc12 + CC1=CC(=O)CC(C)(C)C1 + CC(C)O

>  <solubility (g/100 g solution)>
0.862

$$$$
>  <Compound>
O=C(NC(C(=O)O)c1ccccc1)OCc1ccccc1 (centres undefined) + CCO + O

>  <solubility (g/100 g solution)>
6.76

$$$$
>  <Compound>
Cc1c(Br)c(=O)n(C2CCCC2)c2nc(Cl)ncc12 + CCOC(C)=O + CCO

>  <solubility (g/100 g solution)>
0.639

$$$$

Q: Which solubility (g/100 g solution) is listed for Cc1c(Br)c(=O)n(C2CCCC2)c2nc(Cl)ncc12 + C1CCOC1 + CCO ?
A: 3.83

====

- Measurement description: xn = mol fraction of the nth substance listed, in the solute-free solvent
- Measurement conditions: 288.15 K; x2 = 0.4
Measured endpoint: solubility (g/100 g solution)
Could you respond with only the numeric value?

>  <Compound>
Cc1c(Br)c(=O)n(C2CCCC2)c2nc(Cl)ncc12 + CCOC(C)=O + CCO

>  <solubility (g/100 g solution)>
0.492

$$$$
>  <Compound>
CCOC(=O)OC1=C(c2cc(C)ccc2C)C(=O)NC12CCC(OC)CC2 (configuration not stated) + CCO + O

>  <solubility (g/100 g solution)>
2.31

$$$$
>  <Compound>
CCOC(=O)OC1=C(c2cc(C)ccc2C)C(=O)NC12CCC(OC)CC2 (configuration not stated) + CO + O

>  <solubility (g/100 g solution)>
0.473

$$$$
>  <Compound>
Cc1ncc(CO)c(CO)c1O.Cl + O + CC#N

>  <solubility (g/100 g solution)>
2.65

$$$$

Q: Any idea what solubility (g/100 g solution) was measured for COC(=O)C(N)CS.Cl (configuration not stated) + CCO + ClCCl ?
A: 3.93

Q: How about Cc1ncc(CO)c(CO)c1O.Cl + O + CC(C)O ?
A: 1.11

Q: Record: N#CCNC(=O)c1cnccc1C(F)(F)F + CCOC(C)=O + CCO
A: 6.57

====

- Measurement description: xn = mol fraction of the nth substance listed, in the solute-free solvent
- Measurement conditions: 313.15 K; x2 = 0.4
Measured endpoint: solubility (g/100 g solution)
Form rule: numeric answer, no unit written next to it.

>  <Compound>
Cc1c(Br)c(=O)n(C2CCCC2)c2nc(Cl)ncc12 + C1CCOC1 + CCO

>  <solubility (g/100 g solution)>
6.1

$$$$

Q: Can you share its solubility (g/100 g solution)? I mean this compound: CCOC(=O)OC1=C(c2cc(C)ccc2C)C(=O)NC12CCC(OC)CC2 (stereo unspecified) + CC(C)=O + O
A: 15.7

Q: Now consider Cc1c(Br)c(=O)n(C2CCCC2)c2nc(Cl)ncc12 + CCOC(C)=O + CCO and answer again.
A: 1.02
